- tested_on: human MCR4 receptor (Homo sapiens, UniProt P32245)
- Construct: expressed in transfected cells
- Sequence (P32245 whole entry): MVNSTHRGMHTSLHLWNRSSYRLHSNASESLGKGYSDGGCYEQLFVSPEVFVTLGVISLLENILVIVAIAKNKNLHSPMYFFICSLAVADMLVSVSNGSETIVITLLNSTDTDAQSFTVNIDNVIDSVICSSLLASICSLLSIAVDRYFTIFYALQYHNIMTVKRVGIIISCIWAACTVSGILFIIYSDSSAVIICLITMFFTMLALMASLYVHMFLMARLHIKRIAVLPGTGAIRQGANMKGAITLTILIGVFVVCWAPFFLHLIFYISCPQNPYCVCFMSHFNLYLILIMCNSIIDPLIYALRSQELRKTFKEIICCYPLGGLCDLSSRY
- experiment_summary: MCR4 improved functional assay (Protocol E): CHO-K1-MC4R-CRE-β-lactamase reporter
- Format: cell-based
- condition_summary: Table 6, read-out: MCR4 EC50
Reported values of pEC50 for individual entries
The value called pEC50 is obtained by taking minus log10 of the concentration in mol/L.

>  <molecule>
C[C@@H]1CN(C(=O)[C@@H]2CN(C(C)(C)C)C[C@H]2c2ccc(F)cc2F)C[C@H](C)[C@@]1(O)c1ccccc1.Cl [Example 5, hydrochloride]

>  <tested_on>
human MCR4 receptor (Homo sapiens, UniProt P32245)

>  <pEC50>
8.02

$$$$

Moving on to the next molecule.
Complete the entry with pEC50 for C[C@@H]1CN(C(=O)[C@@H]2CN(c3cccnn3)C[C@H]2c2ccc(F)cc2F)C[C@H](C)[C@@]1(O)c1ccccc1.Cl [Example 35, hydrochloride]
8.82
